GI50: recorded values
test system: SF-295 CNS; experiment: NCI tumour cell line growth inhibition, 48 h

COMPOUND | GI50
COc1cc(/C=C2\COc3ccc(O)c(O)c3C2=O)cc(OC)c1 | 3010 nM

Problem: Entry `CCOC(=O)c1sc(Nc2ccc(Cl)cc2)nc1C` : reported GI50 = ?
Result: 1690 nM

Problem: Which GI50 is reported for this compound? COc1ccc2c(c1)CCC1C2CC[C@]2(C)/C(=N/OC(=O)Cc3ccccc3)CCC12 (some centres undefined)
Result: 16700 nM

Problem: Form field: reported GI50 of COc1ccc(NC(=O)c2sc3nc(C)c(C(O)c4ccccc4)cc3c2N)cc1 (centres undefined)
Result: 1250 nM

* * *

tested on: COLO 205 colon; assay: NCI tumour cell line growth inhibition, 48 h
MEASUREMENT TYPE: TGI (µM)
// units = µM; emit number, no label

Problem: Which measured TGI value corresponds to `CC(C)NC(=O)OCCN=C1c2ccccc2CCc2ccccc21` ?
Result: 35.7

Problem: Entry under review: `CCCN(CCC)c1ccc(/C=N/NC(=O)c2cccnc2)c(Cl)c1` . Reported TGI?
Result: 22.3

Problem: Which TGI is listed for CC1C=CC(=O)C(n2cc(F)c(=O)[nH]c2=O)O1 (stereo not given) ?
Result: 35.9

Problem: Field request: TGI | item: `CCN(CC)CCCNc1nc2ccccc2c2[nH]c3ccc(OC)cc3c12`
Result: 2.59

* * *

Listed here are compounds together with their documented TGI.
test system: NCI-H23 lung; test: NCI tumour cell line growth inhibition, 48 h

Solved cases (3 shown):
COMPOUND | RESULT
O=C(Nc1c(O)[nH]c(=S)[nH]c1=O)c1ccc2ccccc2n1 | > 100 µM
C1=Cc2nc1c(-c1ccncc1)c1ccc([n-]1)c(-c1ccncc1)c1nc(c(-c3ccncc3)c3ccc([n-]3)c2-c2ccncc2)C=C1.[Zn+2] | > 100 µM
Cc1ccc(C)c(NC(=O)CC/C(=N\NC(=O)C(N)=O)C(C)C(=O)c2ccc(O)cc2)c1 (stereo not given) | > 100 µM

Problem: I'd like to know its TGI. The compound in question is `O=[N+]([O-])c1nccn1COCCF`
Result: > 100 µM

Problem: Can you share its TGI? I mean this compound: O=S(CCCl)c1c2ccccc2nc2ccccc12 (stereo not given)
Result: > 100 µM

Problem: // query TGI value for entry `N#CCCN(c1ccc(-c2nnc(NC(=O)CNNC(=O)CC(=O)Nc3ccccc3)s2)cc1)S(=O)(=O)c1ccccc1`
Result: > 100 µM

* * *

tested on: HT29 colon; experiment: NCI tumour cell line growth inhibition, 48 h; in the data active means GI50 below about 0.43 µM; inactive means the rest
Use one of these outcomes when replying: active, inactive

Before answering, review these 3 worked examples.
COMPOUND | TESTED SYSTEM | ANSWER LABEL
Cc1ccc(S(=O)(=O)N2CCc3ccc(O)c4c3C2Cc2cc(Cl)ccc2-4)cc1 (configuration not stated) | HT29 colon | inactive
NS(=O)(=O)c1ccc(CCN=C=S)cc1 | HT29 colon | inactive
CCCN(CCC)c1ccc(/C=N/NC(=O)c2cccnc2)c(Cl)c1 | HT29 colon | inactive

Problem: Recorded test call requested for COC(=O)C1=C(C(=O)OC)C23C=C(C)C1C2=C(C)C1(CC1)[C@@](C)(O)C3=O (some centres not stated)
Result: active

Problem: // param item: NS(=O)(=O)c1ccc(N2N=C3c4ccccc4CC3C2c2ccc(Cl)cc2)cc1 (configuration not stated) ; yields the recorded call
Result: inactive

Problem: Record request — test call for `NCCC(O)(P(=O)(O)O)P(=O)(O)O`
Result: inactive

Problem: Please state the recorded outcome for this compound: `COc1ccc([N+](=O)[O-])c(S(=O)(=O)c2ccc(Cl)cc2)n1`
Result: inactive

Problem: For `Cc1nc(NC(=O)CCCN2C(=O)c3cccc4cccc(c34)C2=O)sc1C(=O)Nc1cc(C(=O)NCCCN(C)C)n(C)c1` , what call appears in the results of this test?
Result: inactive

Problem: Lab log entry: `COc1cc(/C=C2\COc3ccc(O)c(O)c3C2=O)cc(OC)c1` — outcome as called in the assay?
Result: inactive

Problem: # outcome recorded in this test, key = `COC1=CC(c2ccc[nH]2)=N/C1=C\c1[nH]c(C)c(C(=O)CCCCC(=O)Nc2ccccc2)c1C`
Result: inactive

Problem: Please let me know the test result on file for `N.N.NCCCCN.O=C([O-])C1(C(=O)[O-])CCC1.O=C([O-])C1(C(=O)[O-])CCC1.[Pt+4].[Pt+4]` .
Result: inactive

Problem: State the result this test recorded for CCC(C)C(NC(=O)C1CCCN1C(=O)C(NC(=O)C(C)N)C(C)C)C(N)=O (configuration not stated) .
Result: inactive

* * *

system: SK-OV-3 ovarian; experiment: NCI tumour cell line growth inhibition, 48 h
MEASUREMENT TYPE: TGI

Recorded results for 2 compounds are shown here.
COMPOUND | MEASUREMENT TYPE | RESULT
c1ccc2c(c1)Nc1nc3nonc3nc1N2 | TGI | > 100 µM
O=C(CCc1cccc(O)c1)NCCc1ccc(O)cc1 | TGI | > 100 µM

Problem: GET /values?readout=TGI&item= OCC12C3C4C1C1C2C3C41CO (stereo not drawn)
Result: > 100 µM

Problem: Look at this compound and give its reported TGI. CCOC(=O)CCC(NC(=O)c1ccc(OCc2nc3ccccc3n3cccc23)cc1)C(=O)OCC (stereo not drawn)
Result: > 100 µM

Problem: What measured TGI goes with Cc1ccccc1C(C#N)C(=O)C(=O)Nc1cccc(Cl)c1 (stereo not drawn) ?
Result: > 100 µM

Problem: Can you share its TGI? I mean this compound: `CCCc1nc2c(C)cc(-c3nc4ccccc4n3C)cc2n1Cc1ccc(-c2ccccc2C(=O)O)cc1`
Result: > 100 µM

* * *

system: RXF 393 renal; assay: NCI tumour cell line growth inhibition, 48 h
MEASUREMENT TYPE: GI50

Answered cases to consult:
SMILES STRUCTURE | TESTED SYSTEM | RESULT
CCCCCCCC[N+](C)(CCCCCCCC)CCCCCCCC | RXF 393 renal | 390 nM
COC1=CC(c2ccc[nH]2)=N/C1=C\c1ccc[nH]1 | RXF 393 renal | 378 nM
C=C1C(=O)O[C@H]2[C@H]1CC/C(COC(=O)NCc1c[nH]c3ccc(Cl)cc13)=C\CC[C@@]1(C)O[C@@H]21 | RXF 393 renal | 1370 nM
NS(=O)(=O)c1ccc(CCN=C=S)cc1 | RXF 393 renal | 1620 nM

Problem: Tell me the measured GI50 of `CCOC(=O)c1sc(=S)c2c(C(=O)OCC)c(C(=O)OCC)sc2c1C(=O)OCC` , please.
Result: 13000 nM

* * *

test system: SF-268 CNS; test: NCI tumour cell line growth inhibition, 48 h
MEASUREMENT TYPE: TGI

Field: example entries. Status: answers known.
MOLECULE | TGI
CC(C)NCC(O)c1ccc(OCc2ccccc2)c(OCc2ccccc2)c1-c1ccccc1 (stereo not given) | 11.8 µM
NC(=S)N/N=C1/C(=O)N(c2ccc(Cl)cc2Cl)C(=O)C(=O)C1c1nc2ccccc2s1 (stereo not given) | > 100 µM
CC(NC(=O)OC(C)(C)C)C(=O)C(N)=O (stereo not given) | > 100 µM
COC(=O)C1=C(C(=O)OC)C23C=C(C)C1C2=C(C)C1(CC1)[C@@](C)(O)C3=O (stereo not given in full) | 3.07 µM

Problem: Name the recorded TGI for `CSc1nc2sc3cc(Cl)ccc3n2c(=N)c1C#N` .
Result: > 100 µM

Problem: Quick one: TGI for CCCCCCCCCCCCCCCCCCOCC(CO[P+](=O)O)OCCCCCCCCCCCCCCCCCC (stereo not given) ?
Result: > 50 µM

Problem: Name the reported TGI value associated with the molecule `OCCN(CCO)c1ccc2c(c1)Cc1ccccc1-2`
Result: > 100 µM

Problem: Report TGI for `C1=Cc2nc1c(-c1ccncc1)c1ccc([n-]1)c(-c1ccncc1)c1nc(c(-c3ccncc3)c3ccc([n-]3)c2-c2ccncc2)C=C1.[Zn+2]` please.
Result: > 100 µM

Problem: Report TGI for `O=c1cnn2c(n1)sc1ccc3ccccc3c12` please.
Result: > 100 µM

Problem: Which TGI is listed for `Cc1ccccc1CN1CC=c2ccccc2=N1` ?
Result: > 100 µM

* * *

system: A498 renal; experiment: NCI tumour cell line growth inhibition, 48 h
MEASUREMENT TYPE: TGI

COMPOUND | MEASUREMENT TYPE | RESULT
O=C(NCCO)Nc1c(C(F)(F)F)cc(-c2ccccc2)[nH]c1=O | TGI | > 100 µM

Problem: If you can, please state the reported TGI value of `COc1cc(/C=C2\COc3ccc(O)c(O)c3C2=O)cc(OC)c1` .
Result: 19.1 µM

Problem: # TGI lookup, item `COc1ccc(/C=C/C(=O)N[C@@H]2C(=O)N3[C@@H]2SC(C)(C)[C@@H]3C(=O)O)cc1`
Result: > 100 µM

Problem: What value of measured TGI is listed for `COc1cccc(/C=C2\CCCCCC2=O)c1` ?
Result: > 100 µM

Problem: I'd like to know its TGI. The compound in question is CC(C)(C)C(=O)C1CC(=O)c2ccccc2C1=O (stereo not given)
Result: 91.3 µM

Problem: Which TGI value belongs to `COC1=CC(c2ccc[nH]2)=N/C1=C\c1ccc[nH]1` ?
Result: 14.4 µM
